Attribution: patent US10377774B2

Overview of recorded IC50 for various molecules
System: human cervical carcinoma cell line Hela
Assay: MTT cell growth inhibition, Hela
Format: cell-based
Details: MTT assay, 72 h, read-out: IC50, growth of tumor cell line
Kindly report the value followed by its unit.

Before answering, review these 3 worked examples.
molecule: CCC1=CC2CN(C1)Cc1c([nH]c3ccccc13)C(C(=O)OC)(c1cc3c(cc1OC)N(C)C1C(O)(C(=O)NNC(=O)C4CCCN4C(=O)CNC(=O)OCc4ccccc4)C(O)C4(CC)C=CCN5CCC31C54)C2 (stereo not shown) [BX-CCRB, Z-GP-NHNH-Vinorelbine]
IC50: 182 nM
--
molecule: CCC1(O)CC2CN(CCc3c([nH]c4ccccc34)C(C(=O)OC)(c3cc4c(cc3OC)N(C)C3C(O)(C(=O)NNC(=O)C5CCCN5C(=O)CNC(=O)OCc5ccccc5)C(O)C5(CC)C=CCN6CCC43C65)C2)C1 (stereo not shown) [BX-CCJ, Z-GP-NHNH-Vinblastine]
IC50: 56.8 nM
--
molecule: CCC1(O)CC2CN(CCc3c([nH]c4ccccc34)C(C(=O)OC)(c3cc4c(cc3OC)N(C=O)C3C(O)(C(=O)NNC(=O)C5CCCN5C(=O)CNC(=O)OCc5ccccc5)C(O)C5(CC)C=CCN6CCC43C65)C2)C1 (stereo not shown) [BX-CCXJ, Z-GP-NHNH-Vincristine]
IC50: 55.3 nM

Exercise: Return reported IC50; argument: CCC12C=CCN3CCC4(c5cc(C6(C(=O)OC)CC7CC(C(C)(F)F)CN(Cc8c6[nH]c6ccccc86)C7)c(OC)cc5N(C)C4C(O)(C(=O)NNC(=O)C4CCCN4C(=O)CNC(=O)OCc4ccccc4)C1O)C32 (stereo not shown) [BX-CCFN, Z-GP-NHNH-Vinflunine]
Key: 430 nM

* * *

Tested on: HepG2 xenografts
Test: HepG2 xenografts in nude mice
Format: in vivo
Conditions: HepG2 xenograft nude mice, 1 mg/kg
measurement.kind: Body weight (g) Post-dose
// units = g; emit number, no label

Before answering, review these 3 worked examples.
compound: CCC1=C[C@@H]2CN(C1)Cc1c([nH]c3ccccc13)[C@@](C(=O)OC)(c1cc3c(cc1OC)N(C)[C@H]1[C@@](O)(C(=O)NN)[C@H](O)[C@]4(CC)C=CCN5CC[C@]31[C@@H]54)C2 [JJ-CCRB, hydrazinolyzed vinorelbine]
result.units: g
measured.result: 17.0

compound: CC[C@]1(O)C[C@@H]2CN(CCc3c([nH]c4ccccc34)[C@@](C(=O)OC)(c3cc4c(cc3OC)N[C@H]3[C@@](O)(C(=O)NN)[C@H](O)[C@]5(CC)C=CCN6CC[C@]43[C@@H]65)C2)C1 [JJ-CCXJ, hydrazinolyzed vincristine]
result.units: g
measured.result: 17.8

compound: CC[C@]1(O)C[C@@H]2CN(CCc3c([nH]c4ccccc34)[C@@](C(=O)OC)(c3cc4c(cc3OC)N(C)[C@H]3[C@@](O)(C(=O)OC)[C@H](OC(C)=O)[C@]5(CC)C=CCN6CC[C@]43[C@@H]65)C2)C1 [Vinblastine, reference compound]
result.units: g
measured.result: 18.2

Okay, next one:
Exercise: Return reported Body weight (g) Post-dose; argument: CC[C@]1(O)C[C@@H]2CN(CCc3c([nH]c4ccccc34)[C@@](C(=O)OC)(c3cc4c(cc3OC)N(C)[C@H]3[C@@](O)(C(=O)NN)[C@H](O)[C@]5(CC)C=CCN6CC[C@]43[C@@H]65)C2)C1 [JJ-CCJ, hydrazinolyzed vinblastine]
Key: 16.1

* * *

Test system: 5-FU-resistant human hepatocellular carcinoma cell line BEL-7402/5-Fu
Experiment: MTT cell growth inhibition, BEL-7402/5-Fu
Format: cell-based
Settings: Homo sapiens, Bel7402/5-FU, MTT assay, 72 h, read-out: IC50, growth of tumor cell line
The label is satisfied for IC50 below 100 nM and not satisfied for IC50 equal to or exceeding 100 nM.

compound: CC[C@]12C=CCN3CC[C@@]4(c5cc([C@@]6(C(=O)OC)C[C@@H]7C[C@@H](C(C)(F)F)CN(Cc8c6[nH]c6ccccc86)C7)c(OC)cc5N(C)[C@H]4[C@@](O)(C(=O)OC)[C@@H]1OC(C)=O)[C@@H]32 [Vinflunine, reference compound]
discrete.label: satisfied

compound: CCC1=C[C@@H]2CN(C1)Cc1c([nH]c3ccccc13)[C@@](C(=O)OC)(c1cc3c(cc1OC)N(C)[C@H]1[C@@](O)(C(=O)OC)[C@H](OC(C)=O)[C@]4(CC)C=CCN5CC[C@]31[C@@H]54)C2 [Vinorelbine, reference compound]
discrete.label: satisfied

compound: CCC1=C[C@@H]2CN(C1)Cc1c([nH]c3ccccc13)[C@@](C(=O)OC)(c1cc3c(cc1OC)N(C)[C@H]1[C@@](O)(C(=O)NN)[C@H](O)[C@]4(CC)C=CCN5CC[C@]31[C@@H]54)C2 [JJ-CCRB, hydrazinolyzed vinorelbine]
discrete.label: not satisfied

compound: CC[C@]1(O)C[C@@H]2CN(CCc3c([nH]c4ccccc34)[C@@](C(=O)OC)(c3cc4c(cc3OC)N(C)[C@H]3[C@@](O)(C(=O)OC)[C@H](OC(C)=O)[C@]5(CC)C=CCN6CC[C@]43[C@@H]65)C2)C1 [Vinblastine, reference compound]
discrete.label: satisfied

compound: CC[C@]1(O)C[C@@H]2CN(CCc3c([nH]c4ccccc34)[C@@](C(=O)OC)(c3cc4c(cc3OC)N(C)[C@H]3[C@@](O)(C(=O)NN)[C@H](O)[C@]5(CC)C=CCN6CC[C@]43[C@@H]65)C2)C1 [JJ-CCJ, hydrazinolyzed vinblastine]
discrete.label: satisfied

compound: CC[C@]12C=CCN3CC[C@@]4(c5cc([C@@]6(C(=O)OC)C[C@@H]7C[C@@H](C(C)(F)F)CN(Cc8c6[nH]c6ccccc86)C7)c(OC)cc5N(C)[C@H]4[C@@](O)(C(=O)NN)[C@@H]1O)[C@@H]32 [JJ-CCFN, hydrazinolyzed vinflunine]
discrete.label: not satisfied

Exercise: Is IC50 of CC[C@]1(O)C[C@H]2CN(CCc3c([nH]c4ccccc34)[C@@](C(=O)OC)(c3cc4c(cc3OC)N(C=O)[C@H]3[C@@](O)(C(=O)OC)[C@H](OC(C)=O)[C@]5(CC)C=CCN6CC[C@]43[C@@H]65)C2)C1 [Vincristine, reference compound] strictly below 100 nM?
Key: satisfied

Exercise: Moving on to the next compound: CC[C@]1(O)C[C@@H]2CN(CCc3c([nH]c4ccccc34)[C@@](C(=O)OC)(c3cc4c(cc3OC)N[C@H]3[C@@](O)(C(=O)NN)[C@H](O)[C@]5(CC)C=CCN6CC[C@]43[C@@H]65)C2)C1 [JJ-CCXJ, hydrazinolyzed vincristine]
Key: not satisfied

* * *

Overview of recorded Tumor weight for various compounds
Tested on: MDA-MB-231 xenografts
Assay: MDA-MB-231 xenografts in nude mice
Assay type: in vivo, BALB/nu/nu mice
Settings: MDA-MB-231 xenograft nude mice, 1 mg/kg i.p. every two days, 8 administrations
// units = g; emit number, no label

Exercise: Return reported Tumor weight; argument: CC[C@]12C=CCN3CC[C@@]4(c5cc([C@@]6(C(=O)OC)C[C@@H]7C[C@@H](C(C)(F)F)CN(Cc8c6[nH]c6ccccc86)C7)c(OC)cc5N(C)[C@H]4[C@@](O)(C(=O)NN)[C@@H]1O)[C@@H]32 [JJ-CCFN, hydrazinolyzed vinflunine]
Key: 0.65

Exercise: Moving on to the next compound: CCC1(O)CC2CN(CCc3c([nH]c4ccccc34)C(C(=O)OC)(c3cc4c(cc3OC)N(C=O)C3C(O)(C(=O)NNC(=O)C5CCCN5C(=O)CNC(=O)OCc5ccccc5)C(O)C5(CC)C=CCN6CCC43C65)C2)C1 (stereo not drawn) [BX-CCXJ, Z-GP-NHNH-Vincristine]
Key: 0.23

Exercise: Moving on to the next compound: CCC1(O)CC2CN(CCc3c([nH]c4ccccc34)C(C(=O)OC)(c3cc4c(cc3OC)N(C)C3C(O)(C(=O)NNC(=O)C5CCCN5C(=O)CNC(=O)OCc5ccccc5)C(O)C5(CC)C=CCN6CCC43C65)C2)C1 (stereo not drawn) [BX-CCJ, Z-GP-NHNH-Vinblastine]
Key: 0.20

* * *

System: HL-60 xenografts
Test: HL-60 xenografts in nude mice
Type: in vivo
Conditions: HL-60 xenograft nude mice, 1 mg/kg
measurement.kind: Tumor weight (g)
// units = g; emit number, no label

compound: CC[C@]1(O)C[C@@H]2CN(CCc3c([nH]c4ccccc34)[C@@](C(=O)OC)(c3cc4c(cc3OC)N(C)[C@H]3[C@@](O)(C(=O)NN)[C@H](O)[C@]5(CC)C=CCN6CC[C@]43[C@@H]65)C2)C1 [JJ-CCJ, hydrazinolyzed vinblastine]
Tumor weight (g): 0.64

Okay, next one:
Exercise: Return reported Tumor weight; argument: CCC1(O)CC2CN(CCc3c([nH]c4ccccc34)C(C(=O)OC)(c3cc4c(cc3OC)N(C=O)C3C(O)(C(=O)NNC(=O)C5CCCN5C(=O)CNC(=O)OCc5ccccc5)C(O)C5(CC)C=CCN6CCC43C65)C2)C1 (centres unmarked)
Key: 0.58
